Every entry's value here was drawn from ChEMBL document CHEMBL2385047.

Property: MIC; scope: individual compounds
- Test system: Candida albicans
- assay_comment: Antifungal activity against wild type Candida albicans CAI4 assessed as growth inhibition after 24 hrs by NCCLS broth microdilution method
- Type: functional
- reported_conditions: CAI4, 24 h, read-out: MIC100
Numbered stars: 1 amine (or outer) side, 2 acyl side, 3 side chain; on linkers, the order of the positions; unused ones are H or OH. Bridge positions count the residues as written; N and C are the ends. Square brackets hold non-standard residues; d marks the D form. Peptide text beside a SMILES is read from it. * marks the point of attachment. Orn(4R-OH,5R-OH) = O=C([C@H](C[C@@H](O)[C@@H](O)N[*:3])N[*:1])[*:2]; Tetradecanoyl(10R,12S-Me2) = CC[C@H](C)C[C@H](C)CCCCCCCCC(=O)*; hTyr(3S-OH,4S-OH) = N[C@H](C(=O)O)[C@H](O)[C@@H](O)c1ccc(O)cc1; Pro(3S-OH,4S-Me) = C[C@H]1CN[C@H](C(=O)O)[C@H]1O; X1 = CCCCCOc1ccc(-c2cc(-c3ccc(C(=O)*)cc3)no2)cc1; Gln(3R-OH) = NC(=O)C[C@@H](O)[C@H](N)C(=O)O; Pro(3S-OH) = O=C(O)[C@H]1NCC[C@@H]1O; Hyp = O=C(O)[C@@H]1C[C@@H](O)CN1

compound: CC[C@H](C)C[C@H](C)CCCCCCCCC(=O)N[C@H]1C[C@@H](O)[C@@H](O)NC(=O)[C@@H]2[C@@H](O)CCN2C(=O)[C@H]([C@H](O)CC(N)=O)NC(=O)[C@H]([C@H](O)[C@@H](O)c2ccc(O)cc2)NC(=O)[C@@H]2C[C@@H](O)CN2C(=O)[C@H]([C@@H](C)O)NC1=O ({Tetradecanoyl(10R,12S-Me2)}-[Orn(4R-OH,5R-OH)]T[Hyp][hTyr(3S-OH,4S-OH)][Gln(3R-OH)][Pro(3S-OH)]; lactam 1-C)
MIC / µg/mL: 0.5
//
compound: CCCCCOc1ccc(-c2cc(-c3ccc(C(=O)N[C@H]4C[C@@H](O)[C@@H](O)NC(=O)[C@@H]5[C@@H](O)[C@@H](C)CN5C(=O)[C@H]([C@H](O)CC(N)=O)NC(=O)[C@H]([C@H](O)[C@@H](O)c5ccc(O)cc5)NC(=O)[C@@H]5C[C@@H](O)CN5C(=O)[C@H]([C@@H](C)O)NC4=O)cc3)no2)cc1 (X1-[Orn(4R-OH,5R-OH)]T[Hyp][hTyr(3S-OH,4S-OH)][Gln(3R-OH)][Pro(3S-OH,4S-Me)]; lactam 1-C)
MIC / µg/mL: 0.06
